assay.explanation: solvent given as SMILES
run.conditions: in C1CCCCC1
quantity.measured: absorption maximum (nm)

smiles.text	quantity.unit	absorption maximum
COc1cccc2c1-c1ccccc1C2=O	nm	420
c1cc(-c2ccc3c(c2)CCCO3)ccc1-c1ccc2c(c1)CCCO2	nm	295
CN(C)c1ccc(-c2c(/C=C3/C=Cc4ccccc4N3C)c(=O)c2=O)cc1	nm	358
CCCC1(CCC)c2cc(-c3ccc(C(C)(C)C)cc3)ccc2-c2ccc(-c3ccc4c(c3)C(CCC)(CCC)c3cc(-c5ccc6c(c5)C(CCC)(CCC)c5cc(-c7ccc(C(C)(C)C)cc7)ccc5-6)ccc3-4)cc21	nm	362
CCC1(CC)c2cc(N(C)C)ccc2-c2ccc(C(F)(F)F)cc21	nm	341
CC1=[N+]2C(=C(Oc3ccc4c(c3)CC[C@@H]3[C@@H]4CC[C@]4(C)C(=O)CC[C@@H]34)c3ccc(C)n3[B-]2(F)F)C=C1c1cc2n(c1)[B-](F)(F)[N+]1=CC=CC1=C2c1c(C)cc(C)cc1C	nm	579.5
O=C1Nc2ccccc2/C1=C/C(=O)c1ccc(Cl)cc1Cl	nm	336
Nc1cccc2c1C(=O)c1ccccc1-2	nm	407

---

assay.explanation: solvent given as SMILES
run.conditions: in Cc1ccccc1
quantity.measured: absorption maximum (nm)
Kindly provide the numeric value in nm only, without the unit symbol.

The cases that follow already have their absorption maximum on record.
compound	absorption maximum, nm
CC1(C)c2ccccc2N(c2ccc(-c3nnc(-c4ccc(N5c6ccccc6C(C)(C)c6ccccc65)cc4)o3)cc2)c2ccccc21	360
CCCCCCCCN1c2ccc(C#Cc3ccc(OC)cc3)cc2Sc2cc(C=O)ccc21	383
Cc1cc(C#N)ccc1N1c2ccccc2C(c2ccccc2)(c2ccccc2)c2ccccc21	349
COc1ccccc1C1=NC2c3cccc4cccc(c34)C2N1c1ccccc1 (stereo not drawn)	312

Memo: CCCCOc1ccc(/C=C/C=C/C=C/c2ccc([N+](=O)[O-])cc2)cc1 , reported absorption maximum: 420

Memo: c1cc2c3cc1c1ccc4c(c1)c1cc(ccc1[C@]15OCCO[C@]41OCCO5)c1ccc4c(c1)c1cc(ccc1[C@]15OCCO[C@]41OCCO5)c1ccc(c3c1)[C@]13OCCO[C@]21OCCO3 , reported absorption maximum: 300

Memo: N#CC(C#N)=C(/C=C/c1cn(-c2ccccc2)nc1-c1ccccc1)c1ccccc1 , reported absorption maximum: 405

Memo: CCCC1=Cc2nc1ccc1[nH]c(cc1CCOC)c1nc(ccc3[nH]c2cc3CCC)C(CCOC)=C1 , reported absorption maximum: 638

---

assay.explanation: solvent given as SMILES
run.conditions: in CCOC(C)=O
quantity.measured: absorption maximum (nm)

>>> df
                                 smiles_text  quantity_unit  numeric_result
 0  O=C1NC(=O)C(c2c[nH]c3ccccc23)=C1c1c[nH]c2ccccc12             nm             445
 1  CCC1=C(C)C2=Cc3cc(I)c(I)n3[B-](F)(F)[N+]2=C1C             nm             528
 2              CCOC(=O)/C=C/c1ccc(N(C)C)cc1             nm             360
 3      O=C1Nc2ccccc2/C1=C/C(=O)c1ccc(Cl)cc1             nm             335
 4  CCn1c2ccccc2c2cc(-c3cc(-c4ccc5c(c4)c4ccccc4n5CC)nc(-c4ccc(OC)cc4)n3)ccc21             nm             362
 5  COC(=O)/C(C#N)=C/c1cn(-c2ccccc2)nc1-c1ccc([N+](=O)[O-])cc1             nm             330
 6                    O=C1C=C(Nc2ccccc2)CCC1             nm             301
 7  CCN(CC)c1ccc2c(C#N)c(/C=C(\C#N)c3nc4ccccc4s3)c(=O)oc2c1             nm             568
 8                   Nc1ccc2c(c1)Cc1ccccc1-2             nm             325
 9  N#CC(C#N)=C(/C=C/c1cn(-c2ccccc2)nc1-c1ccccc1)c1ccccc1             nm             399
10  Cc1cc2ccc(-c3cccc4cccc(-c5ccc6cc(C)c(=O)oc6c5)c34)cc2oc1=O             nm             325

---

Recorded absorption maximum, one value per entry.
assay.explanation: solvent given as SMILES
run.conditions: in Cc1ccccc1
Kindly provide the numeric value in nm only, without the unit symbol.

The cases that follow already have their absorption maximum on record.
smiles.text	quantity.unit	absorption maximum
CCN(CC)c1ccc2cc(/C=C(\C#N)c3nc4ccccc4s3)c(=O)oc2c1	nm	501
c1ccc(-c2nc(-c3ccccc3)nc(-c3ccc(-n4c5ccc(-c6ccc7sc8ccccc8c7c6)cc5c5cc(-c6ccc7sc8ccccc8c7c6)ccc54)cc3)n2)cc1	nm	377

Memo: Cc1cc(C)c(-c2nnc(-c3ccc(-n4c5ccccc5c5ccccc54)c(C)c3)o2)c(C)c1 , reported absorption maximum: 339

Memo: CC(C)(C)c1ccc(-c2nc3ccccc3nc2-c2cc(-c3nc4ccccc4nc3-c3ccc(C(C)(C)C)cc3)cc(-n3c4ccccc4c4ccccc43)c2)cc1 , reported absorption maximum: 344

Memo: c1cc2cc(c1)c1ccc3ccc4ccc(cc4c3c1)c1ccc3ccc4ccc(cc4c3c1)c1cccc2c1 , reported absorption maximum: 355

Memo: CCC1(CC)c2cc(B(c3c(C)cc(C)cc3C)c3c(C)cc(C)cc3C)ccc2-c2c1c1c(c3c2C(CC)(CC)c2cc(B(c4c(C)cc(C)cc4C)c4c(C)cc(C)cc4C)ccc2-3)C(CC)(CC)c2cc(B(c3c(C)cc(C)cc3C)c3c(C)cc(C)cc3C)ccc2-1 , reported absorption maximum: 364

Memo: CC1(C)c2ccccc2N(c2ccc(-c3n[n+]4c(o3)-c3ccccc3O[B-]4(F)F)cc2)c2ccccc21 , reported absorption maximum: 364

---

assay.explanation: solvent given as SMILES
run.conditions: in CC#N
quantity.measured: absorption maximum (nm)

The cases that follow already have their absorption maximum on record.
compound	absorption maximum [nm]
C(#Cc1ccccc1C#Cc1ccccc1)c1ccccc1	310
COc1cc(C(=O)O)ccc1O	290
Clc1nc(Nc2ccccc2)nc(Nc2ccc3c4cccc5cccc(c6cccc2c63)c54)n1	442

(1) CC(=O)OC[C@@H]1O[C@H](n2cnc3c2N=CN2Cc4c[n+](C)c(C)nc4N=C32)[C@@H](O)[C@H]1O
(2) CC(=O)OC[C@H]1O[C@@H](OCC#Cc2ccc(C3=C4C(C)=CC(/C=C/c5ccc([N+](C)(C)C)cc5)=[N+]4[B-](F)(F)n4c(/C=C/c5ccc([N+](C)(C)C)cc5)cc(C)c43)cc2)[C@H](OC(C)=O)C(OC(C)=O)[C@@H]1OC(C)=O (stereo partly drawn)
Q: // compare measured absorption maximum, left 1 , right 2 , return larger Please indicate the selected item by its label.
Ans: 2

---

assay.explanation: solvent given as SMILES
run.conditions: in C1CCOC1
quantity.measured: absorption maximum (nm)

molecule	quantity.unit	numeric.result
C[Si](C)(C)c1ccc(-c2ccc(-c3ccc(-c4ccc(-c5ccc([Si](C)(C)C)s5)s4)c4nsnc34)s2)s1	nm	513
C[Si](C)(C)c1ccc(-c2ccc(-c3ccc(-c4ccc(-c5ccc([Si](C)(C)C)cc5)cc4)c4nsnc34)cc2)cc1	nm	401
CCCCOc1cc(C=C2c3ccccc3-c3ccccc32)c(OCCCC)cc1C=C1c2ccccc2C=Cc2ccccc21	nm	395
O=Cc1ccc(-c2ccc(C3=CCC(c4ccccc4)CC3)s2)s1 (configuration not stated)	nm	385
CCCCCCCCC1(CCCCCCCC)c2cc(C=O)ccc2-c2ccc(/C=C/c3ccc(N(c4ccccc4)c4ccccc4)cc3)cc21	nm	406
CC(C)[Si](C#CC1=CC2=c3cc(C#C[Si](C(C)C)(C(C)C)C(C)C)c4nc(C(F)(F)C(F)(F)C(F)(F)F)nc5c(C#C[Si](C(C)C)(C(C)C)C(C)C)cc(c3c54)C3=CC(C#C[Si](C(C)C)(C(C)C)C(C)C)=C4N=C(C(F)(F)C(F)(F)C(F)(F)F)N=C1C4C32)(C(C)C)C(C)C (configuration not stated)	nm	516
CCc1c(C)[nH]c(C2=[N+]3C(=C(C)c4c(C)c(CC)c(C)n4[B-]3(F)F)c3ccccc32)c1C	nm	618
c1ccc2c(c1)-c1ccccc1C21c2ccccc2-c2c1c1c3ccccc3ccc1c1ccccc21	nm	377
C1=C(c2ccc(-c3cccs3)s2)CCCC1	nm	341
CCCCCCCCCc1c2ccccc2cc2c1oc1c3oc4c5oc6cc7ccccc7cc6c5c5ccccc5c4c3c3ccccc3c21	nm	420
COC(=O)/C(C#N)=C/c1cn(-c2ccccc2)nc1-c1ccc([N+](=O)[O-])cc1	nm	333
O=c1oc2ccccc2cc1-c1nc2ccccc2o1	nm	354
CCOC(=O)c1sc(SC)c2c(=O)[nH]nnc12	nm	380.5
CN(C)c1ccc(C2=Nc3scc[n+]3[B-](F)(F)O2)cc1	nm	402
CCCCCCc1ccc(-n2c3[n+](c4c5ccccc5c5ccccc5c42)[B-](C)(C)c2cc(-n4c5ccccc5c5ccccc54)ccc2-3)cc1	nm	370
F[B-]1(F)n2c(-c3ccccc3)cnc2-c2cccc[n+]21	nm	394
Cc1ccc(-n2c3ccccc3c3cc(C(=C(C#N)C#N)c4ccccc4)ccc32)cc1	nm	442
